System: Mus musculus
EXPERIMENTAL PROTOCOL: Glucose lowering activity in 12 hrs fasting normoglycemic ICR mouse assessed as time for maximum blood glucose reduction at 25 to 50 mg/kg, ip by glucometer
Type: functional
EXPERIMENTAL CONDITIONS: dose 25-50 mg/kg
Each item that follows carries a reported Time.
Dear colleague, please return just the value in h, with no unit written.

| COMPOUND | Time (h) |
| --- | --- |
| c1csc(SSc2nccs2)n1 | 4 |
| c1ccc2sc(SSc3nc4ccccc4s3)nc2c1 [BENZOTHIAZYL DISULFIDE] | 6 |
| Clc1ccccc1SSc1nccs1 | 6 |
| C1Cc2nc(SSc3nc4c(s3)CCC4)sc2C1 | 8 |
| S=C(SSC(=S)n1cccc1)n1cccc1 | 6 |
| C1CCc2sc(SSc3nc4c(s3)CCCC4)nc2C1 | 6 |

Now take the following compound into account.
Result for c1nnc(SSc2nncs2)s1 , tested on Mus musculus, Time: 4
